Molecular target: T1, human CD39 protein (recombinant) (human, UniProt P49961 38-478, limits assumed)
T1 sequence: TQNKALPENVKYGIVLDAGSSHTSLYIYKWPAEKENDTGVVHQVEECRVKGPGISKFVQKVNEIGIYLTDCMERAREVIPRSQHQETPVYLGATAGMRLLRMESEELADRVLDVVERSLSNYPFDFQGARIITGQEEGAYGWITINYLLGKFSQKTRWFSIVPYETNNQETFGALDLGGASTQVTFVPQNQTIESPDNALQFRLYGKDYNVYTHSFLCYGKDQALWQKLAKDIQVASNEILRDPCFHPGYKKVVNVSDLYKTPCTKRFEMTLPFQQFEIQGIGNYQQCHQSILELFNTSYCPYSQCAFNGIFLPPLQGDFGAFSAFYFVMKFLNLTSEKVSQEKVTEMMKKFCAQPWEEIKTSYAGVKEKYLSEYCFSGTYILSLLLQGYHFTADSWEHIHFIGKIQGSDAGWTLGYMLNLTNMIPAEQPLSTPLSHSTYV
Experiment: cell-based or functional assay
Exercise: for every item that follows, state its recorded ATPase inhibition IC50.
Give bare numbers, in nM.

Reference set, count: 2
# Binder, Display Unit, ATPase inhibition IC50
records = [
    ("HuEM0004-38-6 (antibody, human IgG1, kappa, L234A L235A, V domains shown) VH: EVQLVQSGAEVKKPGASVKVSCKASGYTFTSFWMHWVRQAPGQGLEWMGNINPRNGATKYNEKFRSRVTMTADTSISTAYMELSRLRSDDTAVYYCAREDYDEIYYAMDSWGQGTTVTVSS VL: ENVLTQSPATLSLSPGERATLSCSASSSVIYMYWFQQKPGQAPRLLIYDTSNLASGIPARFSGSGSGTDYTLTISSLEPEDFAVYYCQQWSTYPLTFGQGTKLEIKR", "nM", 140),
    ("HuEM0004-38-7 (antibody, human IgG1, kappa, L234A L235A, V domains shown, humanized mAb638, human IgG1/kappa) VH: EVQLVQSGAEVKKPGASVKVSCKASGYTFTSFWMHWVRQAPGQGLEWMGNINPRNGATKYNEKFRSRVTMTADKSISTAYMELSRLRSDDTAVYYCAREDYDEIYYAMDSWGQGTTVTVSS VL: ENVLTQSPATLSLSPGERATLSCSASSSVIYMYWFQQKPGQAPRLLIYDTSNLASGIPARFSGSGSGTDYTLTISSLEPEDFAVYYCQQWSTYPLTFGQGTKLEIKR", "nM", 83.5),
]

Then this binder:
# lookup: ATPase inhibition IC50 of EM0004-38c2 (antibody, human IgG1, kappa, L234A L235A, name in Kabat numbering, V domains shown, chimeric mAb638 variant) VH: QVQLQQPGTELVKPGASVKLSCKASGYTFTSFWMHWVKQRPGQGLEWIGNINPRNAATKYNEKFRSKVTLTADKTSSTAYMHLSSLTSEDSAVYYCAREDYDEIYYAMDSWGQGTSVTVSS VL: QNVLTQSPAIMSASPGEKVTMTCSASSSVIYMYWFQQKPGSSPRVLIYDTSNLASGVPARFSGSGSGTSYSLTISRMEAEDAATYYCQQWSTYPLTFGAGTKLELKR
14.3

Source: patent US20220389111A1
